Exercise: for every item that follows, state its recorded IC90 pNFκB, trun-IL-36b, BaF/3 cynomolgus IL-36R cells.
- target-under-test: cynomolgus IL-36R on BaF/3 cells (cynomolgus)
- procedure-details: cell-based or functional assay

Below: 2 binders and their reported IC90 pNFκB, trun-IL-36b, BaF/3 cynomolgus IL-36R cells.
binder	measured-result
Mouse 33D10 (antibody 33D10) (antibody, V domains shown) VH: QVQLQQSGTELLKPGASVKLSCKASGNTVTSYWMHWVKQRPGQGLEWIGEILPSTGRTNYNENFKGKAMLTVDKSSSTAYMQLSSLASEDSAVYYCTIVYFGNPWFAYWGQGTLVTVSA VL: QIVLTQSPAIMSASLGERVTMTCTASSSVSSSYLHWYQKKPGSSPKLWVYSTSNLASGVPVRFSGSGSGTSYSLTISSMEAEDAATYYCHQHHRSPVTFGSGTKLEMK	> 333 nM
Mouse 81A1 (antibody 81A1) (antibody, V domains shown) VH: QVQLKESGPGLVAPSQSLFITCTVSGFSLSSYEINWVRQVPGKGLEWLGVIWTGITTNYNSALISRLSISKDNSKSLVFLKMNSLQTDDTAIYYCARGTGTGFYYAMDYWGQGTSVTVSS VL: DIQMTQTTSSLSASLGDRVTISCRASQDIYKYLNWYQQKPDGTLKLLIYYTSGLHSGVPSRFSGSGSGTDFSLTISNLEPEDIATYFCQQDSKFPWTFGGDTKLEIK	0.9 nM

--- query ---
Short answer for antibody 76E10 (antibody, V domains shown) VH: QVQLKESGPVLVAPSQSLSITCTVSGFSLTNYGVHWVRQPPGKGLEWLGVIWPVGSTNYNSALMSRLSIHKDNSKSQVFLRMNSLQTDDTAIYYCAKMDWDDFFDYWGQGTTLTVSS VL: DIVMTQSQKFMSATVGGRVNITCKASQNVGRAVAWYQQKPGQSPKLLTHSASNRYTGVPDRFTGSGSGTDFTLTITNMQSEDLADYFCQQYSSYPLTFGAGTKLDLK : IC90 pNFκB, trun-IL-36b, BaF/3 cynomolgus IL-36R cells was > 333 nM
